Catalogue of Affinity ELISA CPE mutant ratio (1:3, pH 6.0/7.4) values
# system.name: T1, Axl protein (human, UniProt P30530 26-451)
# T1 construct: extracellular domain; also called human Axl; hAxl
# T1 sequence (looked up): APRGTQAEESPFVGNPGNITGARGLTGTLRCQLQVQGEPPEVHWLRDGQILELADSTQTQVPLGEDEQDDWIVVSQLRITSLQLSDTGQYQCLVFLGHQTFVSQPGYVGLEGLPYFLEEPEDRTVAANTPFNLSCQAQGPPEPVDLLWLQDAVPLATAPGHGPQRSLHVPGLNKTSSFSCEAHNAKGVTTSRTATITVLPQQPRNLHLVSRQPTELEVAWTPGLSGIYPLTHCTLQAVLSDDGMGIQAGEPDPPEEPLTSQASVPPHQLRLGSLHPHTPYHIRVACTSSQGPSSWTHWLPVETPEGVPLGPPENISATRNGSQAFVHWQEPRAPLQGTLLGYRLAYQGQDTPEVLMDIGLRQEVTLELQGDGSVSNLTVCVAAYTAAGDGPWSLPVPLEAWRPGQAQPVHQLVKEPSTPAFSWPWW
# assay.remarks: ELISA, 1:3 dilution, pH 6.0 over pH 7.4
Record the value in ratio, omitting the unit from your answer.

LC-H091L (antibody, V domains shown) VH: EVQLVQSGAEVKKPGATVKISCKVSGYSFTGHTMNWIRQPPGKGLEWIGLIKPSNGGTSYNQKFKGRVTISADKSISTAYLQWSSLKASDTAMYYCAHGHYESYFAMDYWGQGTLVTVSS VL: DIQMTQSPSSLSASVGDRVTITCKASQDVSSAVAWYQQKPGQAPRLLIYWASTRHTGVPSRFSGSGSGTEFTLTISSLQPDDFATYYCQELFSTPLTFGQGTKVEIK
2.8

Affinity ELISA CPE mutant ratio (1:3, pH 6.0/7.4) for LC-F092E (antibody, V domains shown) VH: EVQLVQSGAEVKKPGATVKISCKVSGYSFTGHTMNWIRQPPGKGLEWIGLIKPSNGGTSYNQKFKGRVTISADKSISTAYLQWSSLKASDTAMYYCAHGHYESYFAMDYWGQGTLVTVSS VL: DIQMTQSPSSLSASVGDRVTITCKASQDVSSAVAWYQQKPGQAPRLLIYWASTRHTGVPSRFSGSGSGTEFTLTISSLQPDDFATYYCQEHESTPLTFGQGTKVEIK is 1.76

Affinity ELISA CPE mutant ratio (1:3, pH 6.0/7.4) for LC-H091F (antibody, V domains shown) VH: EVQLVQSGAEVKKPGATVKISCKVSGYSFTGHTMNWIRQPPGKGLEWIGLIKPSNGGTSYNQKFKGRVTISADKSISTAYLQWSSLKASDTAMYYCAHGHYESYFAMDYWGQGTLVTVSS VL: DIQMTQSPSSLSASVGDRVTITCKASQDVSSAVAWYQQKPGQAPRLLIYWASTRHTGVPSRFSGSGSGTEFTLTISSLQPDDFATYYCQEFFSTPLTFGQGTKVEIK is 1.6

Affinity ELISA CPE mutant ratio (1:3, pH 6.0/7.4) for LC-W050F (antibody, V domains shown) VH: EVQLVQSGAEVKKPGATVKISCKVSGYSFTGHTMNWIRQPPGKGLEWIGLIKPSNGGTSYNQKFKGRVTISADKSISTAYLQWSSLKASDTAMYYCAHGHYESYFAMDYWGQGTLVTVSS VL: DIQMTQSPSSLSASVGDRVTITCKASQDVSSAVAWYQQKPGQAPRLLIYFASTRHTGVPSRFSGSGSGTEFTLTISSLQPDDFATYYCQEHFSTPLTFGQGTKVEIK is 2.25

Affinity ELISA CPE mutant ratio (1:3, pH 6.0/7.4) for LC-H091S (antibody, V domains shown) VH: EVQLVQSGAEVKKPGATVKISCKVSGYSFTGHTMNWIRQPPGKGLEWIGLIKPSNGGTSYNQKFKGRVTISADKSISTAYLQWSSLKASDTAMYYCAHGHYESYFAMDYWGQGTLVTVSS VL: DIQMTQSPSSLSASVGDRVTITCKASQDVSSAVAWYQQKPGQAPRLLIYWASTRHTGVPSRFSGSGSGTEFTLTISSLQPDDFATYYCQESFSTPLTFGQGTKVEIK is 1.76

From: patent US20190177417A1
